Test system: Pseudomonas aeruginosa
Assay procedure: Broth microdilution MIC (CLSI), Pseudomonas aeruginosa
Type: cell-based
Conditions: Pseudomonas aeruginosa, strain PAM1034, nfxC (MexEF-OprN overexpression)
Catalogue of MIC values
Answer format reminder: number followed by unit.

{"Compound": "C[C@H]1[C@H](NC(=O)/C(=N\\OC(C)(C)C(=O)O)c2csc(N)n2)C(=O)N1S(=O)(=O)O", "Result": "4 mg/L"}
{"Compound": "CC1=C[C@@H]2CN(C(=O)N2OS(=O)(=O)O)[C@@H]1C(N)=O", "Result": "128 mg/L"}
{"Compound": "CO/N=C(\\C(=O)N[C@@H]1C(=O)N2C(C(=O)[O-])=C(C[N+]3(C)CCCC3)CS[C@H]12)c1csc(N)n1 [Cefepime]", "Result": "0.5 mg/L"}

Alright, here's another compound for you.
Asked: Name the reported MIC value associated with the compound O=C(O)c1c(F)ccc2c1OB(O)[C@@H]1C[C@H]21
Given back: 256 mg/L

* * *

System: Escherichia coli
Assay procedure: Broth microdilution MIC (CLSI), Escherichia coli
Type: cell-based
Conditions: EC1119; PBP2 same as MG1655, PBP3 YRIN ins, Q227H, E349K, I532L
From the text: (i) Panels of engineered bacterial strains containing various combinations of porin and efflux mutations were used. The construction of all the strains used in the study is described in detail in references, [44], and [45]. (ii) KPC-producing clinical isolates and their derivatives that lost KPC plasmids were used also. These strains and their origins are described in the Table S2. (iii) Finally, KPC-producing clinical isolates enriched in strains with porin mutations were used. […]
Parameter measured: MIC
Write the number on its own, no unit after it.

{"Smiles code": "O=C(O)c1c(F)ccc2c1OB(O)[C@@H]1C[C@H]21", "MIC": 32}
{"Smiles code": "O=C(NNC(=O)[C@@H]1CC[C@@H]2CN1C(=O)N2OS(=O)(=O)O)[C@@H]1CCCNC1", "MIC": 8}

Asked: Name the reported MIC value associated with the molecule CC1=C[C@@H]2CN(C(=O)N2OS(=O)(=O)O)[C@@H]1C(N)=O
Given back: 8

* * *

Tested target: PBP2 (Klebsiella pneumoniae)
Sequence (A6T696 entry or part of it): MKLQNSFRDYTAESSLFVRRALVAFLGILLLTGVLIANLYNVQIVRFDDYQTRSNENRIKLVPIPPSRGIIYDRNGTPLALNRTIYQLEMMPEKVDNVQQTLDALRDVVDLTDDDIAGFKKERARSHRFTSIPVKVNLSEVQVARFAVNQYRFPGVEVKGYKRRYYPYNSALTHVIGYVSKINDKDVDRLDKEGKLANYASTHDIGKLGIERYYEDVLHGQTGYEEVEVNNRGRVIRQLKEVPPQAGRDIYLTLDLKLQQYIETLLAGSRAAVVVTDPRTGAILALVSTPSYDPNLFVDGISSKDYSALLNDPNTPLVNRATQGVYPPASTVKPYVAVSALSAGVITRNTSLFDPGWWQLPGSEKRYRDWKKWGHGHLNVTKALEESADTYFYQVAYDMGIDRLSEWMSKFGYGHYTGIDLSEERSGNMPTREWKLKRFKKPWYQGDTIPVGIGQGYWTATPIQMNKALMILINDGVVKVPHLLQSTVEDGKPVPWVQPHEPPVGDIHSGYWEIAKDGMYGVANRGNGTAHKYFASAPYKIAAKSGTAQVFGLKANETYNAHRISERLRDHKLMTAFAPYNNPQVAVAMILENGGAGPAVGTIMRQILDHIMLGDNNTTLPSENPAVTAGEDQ
Assay procedure: Gel-based Bocillin FL competition PBP binding assay
Parameter measured: pIC50
To interpret pIC50, take it as minus log10 of a concentration measured in moles per litre.

Asked: Name the reported pIC50 value associated with the compound C[C@@H](O)[C@H]1C(=O)N2C(C(=O)O)=C(S[C@@H]3CN[C@H](C(=O)N(C)C)C3)[C@H](C)[C@H]12
Given back: 8.52

* * *

Catalogue of MIC values
Test system: Pseudomonas aeruginosa
Assay procedure: Broth microdilution MIC (CLSI), Pseudomonas aeruginosa
Assay type: cell-based
Conditions: Pseudomonas aeruginosa, strain PAM1020, wild type; read-out: MIC
Provide the reading as a plain figure in µg/mL.

{"Compound": "CO/N=C(\\C(=O)N[C@@H]1C(=O)N2C(C(=O)[O-])=C(C[N+]3(C)CCCC3)CS[C@H]12)c1csc(N)n1 [Cefepime]", "Parameter measured": "MIC", "Unit of measure": "µg/mL", "Quantitative result": 0.5}

Alright, here's another compound for you.
Asked: Name the reported MIC value associated with the compound CC1=C[C@@H]2CN(C(=O)N2OS(=O)(=O)O)[C@@H]1C(N)=O
Given back: 64
